Provide the reported melting point of each item.

Annotate the compound O=C1N(Cc2ccccc2C(F)(F)F)c2ccccc2C12COc1cc3c(cc12)OCCO3 (centres unmarked) with its measured melting point.
207 to 208 °C

Annotate the compound CN1CCOc2cc3c(cc21)OCC31C(=O)N(C[C@H]2CCCO2)c2ccccc21 (some centres unmarked) with its measured melting point.
138 to 140 °C

Annotate the compound O=C1N(Cc2noc(C(F)(F)F)n2)c2ccccc2C12COc1cc3c(cc12)OCO3 (centres unmarked) with its measured melting point.
139 to 140 °C

Annotate the compound CCc1ccccc1NC(=O)c1ccc(CN2C(=O)C3(COc4cc5c(cc43)CCO5)c3ccccc32)cc1 (centres unmarked) with its measured melting point.
203 to 204 °C

Annotate the compound "O=C1N(Cc2ccc(OCc3ccccc3)cc2)c2ccccc2[C@]12COc1cc3c(cc12)OCCO3" with its measured melting point.
151 to 153 °C

Annotate the compound O=C1N(Cc2ccc(F)cn2)c2ccccc2C12COc1cc3c(cc12)OCCO3 (centres unmarked) with its measured melting point.
174 to 176 °C

Annotate the compound O=C1N(Cc2ccccn2)c2ccccc2C12COc1cc3[nH]ncc3cc12 (centres unmarked) with its measured melting point.
117 to 119 °C

Annotate the compound CC(C)c1ncc(CN2C(=O)C3(COc4cc5c(cc43)OCO5)c3cccc(C(F)(F)F)c32)s1 (centres unmarked) with its measured melting point.
101 to 103 °C

---

value-type: melting point

Annotate the compound O=C1N(Cc2ncccc2F)c2ccccc2C12COc1cc3c(cc12)OCCO3 (centres unmarked) with its measured melting point.
247 to 249 °C

Annotate the compound N#Cc1ccc2c(c1)OCC21C(=O)N(Cc2ccccn2)c2ccccc21 (centres unmarked) with its measured melting point.
151 to 153 °C

Annotate the compound O=C1N(C[C@H]2CCCO2)c2ccccc2C12COc1cc3c(cc12)CCCO3 (some centres unmarked) with its measured melting point.
151 to 156 °C

Annotate the compound COc1cc2c(cc1C)C1(CO2)C(=O)N(C[C@H]2CCCO2)c2ccccc21 (some centres unmarked) with its measured melting point.
151 to 153 °C

Annotate the compound C[C@@H](CN1C(=O)C2(COc3cc4c(cc32)CCO4)c2ccccc21)OCOCc1ccccc1 (some centres unmarked) with its measured melting point.
49 to 52 °C

Annotate the compound O=C1Nc2ccccc2C12COc1cc3c(cc12)CCCC3 (centres unmarked) with its measured melting point.
> 230 °C

Annotate the compound CN(C)C(=O)c1cccc(CN2C(=O)C3(COc4cc5c(cc43)OCCO5)c3ccccc32)c1 (centres unmarked) with its measured melting point.
90 to 96 °C

Annotate the compound O=C1N(Cc2ncccc2C(F)(F)F)c2ccccc2C12COc1cc3[nH]ncc3cc12 (centres unmarked) with its measured melting point.
152 to 154 °C

---

Provide the reported melting point of each item.

Annotate the compound CN1C(=O)C2(COc3cc4c(cc32)OCCO4)c2c(C(=O)NC3CCCC3)cccc21 (centres unmarked) with its measured melting point.
135 to 136 °C

Annotate the compound CCc1ccccc1NC(=O)c1ccccc1CN1C(=O)C2(COc3cc4c(cc32)CCO4)c2ccccc21 (centres unmarked) with its measured melting point.
184 to 186 °C

Annotate the compound O=C1N(Cc2ccccn2)c2ccccc2C12COc1ccc3nonc3c12 (centres unmarked) with its measured melting point.
180 to 182 °C

Annotate the compound O=C1N(Cc2ccc3nsnc3c2)c2ccccc2C12COc1cc3c(cc12)OCCO3 (centres unmarked) with its measured melting point.
189 to 191 °C

Annotate the compound Cc1noc2cc3c(cc12)C1(CO3)C(=O)N(Cc2ncccc2F)c2ccccc21 (centres unmarked) with its measured melting point.
167 to 169 °C

Annotate the compound O=C1N(Cc2ccc(Cl)s2)c2cccc(Br)c2C12COc1cc3c(cc12)OCO3 (centres unmarked) with its measured melting point.
85 to 87 °C

Annotate the compound N#Cc1cccc(CN2C(=O)C3(COc4cc5c(cc43)OCCO5)c3ccccc32)n1 (centres unmarked) with its measured melting point.
213 to 215 °C

Annotate the compound Cc1noc2cc3c(cc12)C1(CO3)C(=O)N(Cc2cccnc2)c2ccccc21 (centres unmarked) with its measured melting point.
176 to 177 °C

Annotate the compound "O=C1N(Cc2ccc(F)cn2)c2ccccc2[C@]12COc1cc3c(cc12)OCCO3" with its measured melting point.
210 to 212 °C

Annotate the compound Cc1cc2c(cc1C)C1(CO2)C(=O)N(C(c2ccccc2)c2ccccc2)c2ccccc21 (centres unmarked) with its measured melting point.
193 to 195 °C

Annotate the compound Cc1noc2cc3c(cc12)C1(CO3)C(=O)N(Cc2ccc(C(F)(F)F)o2)c2ccccc21 (centres unmarked) with its measured melting point.
111 to 112 °C

Annotate the compound Nc1ccc(CN2C(=O)C3(COc4cc5c(cc43)OCCO5)c3ccccc32)cn1 (centres unmarked) with its measured melting point.
117 to 119 °C

Annotate the compound O=C1N(Cc2nnc(-c3ccccc3)o2)c2ccccc2C12COc1cc3c(cc12)OCO3 (centres unmarked) with its measured melting point.
158 to 160 °C

Annotate the compound "N#Cc1cccc(CN2C(=O)[C@@]3(COc4cc5c(cc43)OCCO5)c3ccccc32)c1" with its measured melting point.
94 to 96 °C

Annotate the compound COCCOCCN1C(=O)C2(COc3cc4c(cc32)CCO4)c2ccccc21 (centres unmarked) with its measured melting point.
105 to 107 °C

Annotate the compound O=C1N(Cc2noc(C3CC3)n2)c2cccc(Cl)c2C12COc1cc3c(cc12)OCO3 (centres unmarked) with its measured melting point.
180 to 182 °C

Annotate the compound C[C@@H](CN1C(=O)C2(COc3cc4c(cc32)CCO4)c2ccccc21)OCc1ccccc1 (some centres unmarked) with its measured melting point.
45 to 47 °C

---

Target: CYP3A4 (Homo sapiens, UniProt P08684)
Sequence (P08684 whole entry): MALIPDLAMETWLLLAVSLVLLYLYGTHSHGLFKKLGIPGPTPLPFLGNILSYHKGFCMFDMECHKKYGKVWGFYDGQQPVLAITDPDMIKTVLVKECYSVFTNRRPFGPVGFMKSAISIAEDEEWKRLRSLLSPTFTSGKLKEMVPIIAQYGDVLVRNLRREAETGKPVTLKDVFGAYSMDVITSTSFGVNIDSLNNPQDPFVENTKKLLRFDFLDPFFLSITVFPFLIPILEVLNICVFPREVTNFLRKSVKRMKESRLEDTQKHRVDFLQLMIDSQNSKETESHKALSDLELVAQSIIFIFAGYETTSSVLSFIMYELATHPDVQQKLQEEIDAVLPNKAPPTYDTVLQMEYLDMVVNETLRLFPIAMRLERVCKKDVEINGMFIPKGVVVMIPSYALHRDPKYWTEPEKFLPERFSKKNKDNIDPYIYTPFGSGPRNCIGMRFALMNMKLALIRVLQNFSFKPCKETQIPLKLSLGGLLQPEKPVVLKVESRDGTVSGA
Assay: Cytochrome P450 (CYP450) Inhibition Assay, CYP3A4 (Vivid fluorescence, BOMCC substrate)
Conditions: human, P450 Baculosomes (recombinant CYP3A4), probe BOMCC (Vivid substrate)
Where a name gives a salt, the structure may show the parent alone.
value-type: inhibition at 10 µM

Give inhibition at 10 µM for this entry on CYP3A4 (Homo sapiens, UniProt P08684): COc1ccc(CN2C(=O)C3(COc4cc5c(cc43)OCCO5)c3ccccc32)cc1OC (centres unmarked)
> 50%

Give inhibition at 10 µM for this entry on CYP3A4 (Homo sapiens, UniProt P08684): O=C1N(CCCO)c2ccccc2C12COc1cc3c(cc12)CCO3 (centres unmarked)
< 50%

Give inhibition at 10 µM for this entry on CYP3A4 (Homo sapiens, UniProt P08684): O=C(Nc1ccccc1F)c1ccccc1CN1C(=O)C2(COc3cc4c(cc32)CCO4)c2ccccc21 (centres unmarked)
> 50%

Give inhibition at 10 µM for this entry on CYP3A4 (Homo sapiens, UniProt P08684): O=C1N(Cc2ccccn2)c2ccccc2C12COc1cc3c(cc12)OCCO3 (centres unmarked)
< 50%

Give inhibition at 10 µM for this entry on CYP3A4 (Homo sapiens, UniProt P08684): "O=C1N(C[C@@H]2COCCO2)c2ccccc2[C@]12COc1cc3c(cc12)OCCO3"
< 50%

Give inhibition at 10 µM for this entry on CYP3A4 (Homo sapiens, UniProt P08684): NC(=O)CN1C(=O)C2(COc3cc4c(cc32)CCO4)c2ccccc21 (centres unmarked)
< 50%

Give inhibition at 10 µM for this entry on CYP3A4 (Homo sapiens, UniProt P08684): NCCNC(=O)c1cccnc1CN1C(=O)C2(COc3cc4c(cc32)OCCO4)c2ccccc21 (centres unmarked) [Example 12.64, dihydrochloride]
> 50%

Give inhibition at 10 µM for this entry on CYP3A4 (Homo sapiens, UniProt P08684): O=C1c2ccccc2C(=O)N1CCCN1C(=O)C2(COc3cc4c(cc32)CCO4)c2ccccc21 (centres unmarked)
> 50%

Give inhibition at 10 µM for this entry on CYP3A4 (Homo sapiens, UniProt P08684): O=C1N(Cc2nnc(-c3ccccc3)o2)c2ccccc2C12COc1cc3c(cc12)OCO3 (centres unmarked)
> 50%

Give inhibition at 10 µM for this entry on CYP3A4 (Homo sapiens, UniProt P08684): O=C1N(Cc2ccccn2)c2ccccc2C12COc1cc3c(c(F)c12)OCCO3 (centres unmarked)
> 50%

Give inhibition at 10 µM for this entry on CYP3A4 (Homo sapiens, UniProt P08684): N#Cc1cc2c(cc1O)OCC21C(=O)N(Cc2ccccc2C(F)(F)F)c2ccccc21 (centres unmarked)
< 50%

Give inhibition at 10 µM for this entry on CYP3A4 (Homo sapiens, UniProt P08684): O=C1N(Cc2cc(=O)[nH]c(=O)[nH]2)c2ccccc2C12COc1cc3c(cc12)OCO3 (centres unmarked)
< 50%

Give inhibition at 10 µM for this entry on CYP3A4 (Homo sapiens, UniProt P08684): CC(C)(C)OC(=O)Nc1ccc(CN2C(=O)C3(COc4cc5c(cc43)OCCO5)c3ccccc32)cn1 (centres unmarked)
< 50%

Give inhibition at 10 µM for this entry on CYP3A4 (Homo sapiens, UniProt P08684): O=C(Nc1cccc(F)c1)c1ccc(CN2C(=O)C3(COc4cc5c(cc43)CCO5)c3ccccc32)cc1 (centres unmarked)
< 50%

Give inhibition at 10 µM for this entry on CYP3A4 (Homo sapiens, UniProt P08684): O=C(NCc1cccs1)c1ccc(CN2C(=O)C3(COc4cc5c(cc43)CCO5)c3ccccc32)cc1 (centres unmarked)
> 50%

Give inhibition at 10 µM for this entry on CYP3A4 (Homo sapiens, UniProt P08684): CN1C(=O)C2(COc3cc4c(cc32)OCCO4)c2c(Oc3cccc(N4CCOCC4)c3)cccc21 (centres unmarked)
> 50%

Give inhibition at 10 µM for this entry on CYP3A4 (Homo sapiens, UniProt P08684): O=C1N(Cc2cccc(C(F)(F)F)c2)c2ccccc2C12COc1cc3c(cc12)OCCO3 (centres unmarked)
< 50%

Give inhibition at 10 µM for this entry on CYP3A4 (Homo sapiens, UniProt P08684): CC(C)Oc1ccc2c(c1)OCC21C(=O)N(C[C@H]2CCCO2)c2ccccc21 (some centres unmarked)
< 50%

Give inhibition at 10 µM for this entry on CYP3A4 (Homo sapiens, UniProt P08684): "COc1cc2c(cc1C)[C@@]1(CO2)C(=O)Nc2ccccc21"
< 50%

Give inhibition at 10 µM for this entry on CYP3A4 (Homo sapiens, UniProt P08684): O=C1N(Cc2ccc(C(F)(F)F)cn2)c2ccccc2C12COc1cc3c(cc12)OCCO3 (centres unmarked)
> 50%

Give inhibition at 10 µM for this entry on CYP3A4 (Homo sapiens, UniProt P08684): O=C1Nc2ccc3ncsc3c2C12COc1cc3c(cc12)OCCO3 (centres unmarked)
> 50%

Give inhibition at 10 µM for this entry on CYP3A4 (Homo sapiens, UniProt P08684): Cc1nc(-c2ccc(CN3C(=O)C4(COc5cc6c(cc54)CCO6)c4ccccc43)cc2)no1 (centres unmarked)
< 50%

Give inhibition at 10 µM for this entry on CYP3A4 (Homo sapiens, UniProt P08684): Cc1nc(CN2C(=O)C3(COc4cc5c(cc43)OCO5)c3ccccc32)c(C(F)(F)F)o1 (centres unmarked)
> 50%

Give inhibition at 10 µM for this entry on CYP3A4 (Homo sapiens, UniProt P08684): CCCCNC(=O)c1ccccc1CN1C(=O)C2(COc3cc4c(cc32)CCO4)c2ccccc21 (centres unmarked)
> 50%

Give inhibition at 10 µM for this entry on CYP3A4 (Homo sapiens, UniProt P08684): O=C1N(Cc2nsc(Cl)n2)c2ccccc2C12COc1cc3c(cc12)OCO3 (centres unmarked)
> 50%

Give inhibition at 10 µM for this entry on CYP3A4 (Homo sapiens, UniProt P08684): NC(=O)c1ccc2c(c1)C1(COc3cc4c(cc31)OCCO4)C(=O)N2Cc1ccccn1 (centres unmarked)
< 50%

Give inhibition at 10 µM for this entry on CYP3A4 (Homo sapiens, UniProt P08684): Cn1cc(CN2C(=O)C3(COc4cc5c(cc43)CCO5)c3ccccc32)c(C(F)(F)F)n1 (centres unmarked)
> 50%

Give inhibition at 10 µM for this entry on CYP3A4 (Homo sapiens, UniProt P08684): O=C1Nc2ccccc2C12COc1ccc(F)cc12 (centres unmarked)
> 50%

Give inhibition at 10 µM for this entry on CYP3A4 (Homo sapiens, UniProt P08684): "COc1cc2c(cc1C)[C@]1(CO2)C(=O)N(CN2CCN(C)CC2)c2ccccc21"
> 50%

Give inhibition at 10 µM for this entry on CYP3A4 (Homo sapiens, UniProt P08684): CC1(C)OC[C@H](CN2C(=O)C3(COc4cc5c(cc43)OCCO5)c3ccccc32)O1 (some centres unmarked)
> 50%

Give inhibition at 10 µM for this entry on CYP3A4 (Homo sapiens, UniProt P08684): CC(C)N1CCOC(CN2C(=O)C3(COc4cc5c(cc43)OCCO5)c3ccccc32)C1 (centres unmarked)
> 50%

Give inhibition at 10 µM for this entry on CYP3A4 (Homo sapiens, UniProt P08684): CS(=O)(=O)Nc1cccnc1CN1C(=O)C2(COc3cc4c(cc32)OCCO4)c2ccccc21 (centres unmarked)
> 50%

Hey, just so you know, these numbers are from patent US8263606B2.
